Test system: spores of ATCC 630 strain
MEASUREMENT_DESCRIPTION: Inhibition of germination of C. difficile spores (MIC), strain ATCC 630
Format: cell-based
MEASUREMENT_CONDITIONS: Clostridioides difficile, ATCC630, 1 h; strain 630; sodium taurocholate as germinant, BHIS medium, 37° C., OD580 for 60 min; read-out: MIC (minimum concentration that completely inhibits spore germination)
Each entry below carries its reported MIC.
Your answer is read as µM, so omit the unit and give the number.

>>> reported_result("C[C@H](CC(=O)NC(c1cccs1)C(C)(C)C)[C@H]1CC[C@H]2[C@@H]3C(=O)C[C@@H]4CC(=O)CC[C@]4(C)[C@H]3CC[C@]12C (stereo partly drawn) [Compound I-43]")
32
>>> reported_result("CC[C@@H](NC(=O)C[C@@H](C)[C@H]1CC[C@H]2[C@@H]3[C@H](OS(=O)(=O)O)C[C@@H]4CC(=O)CC[C@]4(C)[C@H]3CC[C@]12C)c1ccc(Cl)s1 [Compound I-106]")
0.5
>>> reported_result("CCC(NC(=O)C[C@@H](C)[C@H]1CC[C@H]2[C@@H]3C(=O)C[C@@H]4CC(=O)CC[C@]4(C)[C@H]3CC[C@]12C)c1ccc(S(=O)(=O)O)s1 (stereo partly drawn) [Compound I-39]")
0.5
>>> reported_result("C[C@H](CC(=O)NCc1ccco1)[C@H]1CC[C@H]2[C@@H]3[C@H](O)C[C@@H]4C[C@H](O)CC[C@]4(C)[C@H]3CC[C@]12C [Compound I-2]")
8
>>> reported_result("CC(NC(=O)C[C@@H](C)[C@H]1CC[C@H]2[C@@H]3C(=O)C[C@@H]4CC(=O)CC[C@]4(C)[C@H]3CC[C@]12C)c1ccc(S(=O)(=O)O)s1 (stereo partly drawn) [Compound I-34]")
64
>>> reported_result("CCCCCCCC(=O)O[C@@H]1C[C@@H]2CC(=O)CC[C@]2(C)[C@H]2CC[C@]3(C)[C@@H]([C@H](C)CC(=O)N[C@@H](c4ccc(Cl)s4)C(C)C)CC[C@H]3[C@H]12 [Compound I-185]")
128

Turning now to a further compound:
Query: Can you share its MIC? I mean this compound: CC[C@@H](NC(=O)C[C@@H](C)[C@H]1CC[C@H]2[C@@H]3[C@H](OS(=O)(=O)O)C[C@@H]4CC(=O)CC[C@]4(C)[C@H]3CC[C@]12C)c1ccc(Br)s1 [Compound I-109]
Reply: 0.5
